Tested on: P-gp
Assay: Transport in the presence and absence of verapamil (P-gp function / verapamil inhibition of efflux) in MDCK-pHaMDR cell monolayer
Conditions: dog, MDCK-MDR1, Efflux Ratio (Papp BL→AP/Papp AP→BL), Rh123 10 μM, 90 min, absence of verapamil
property: efflux ratio at 90 min, 10 µM
Answer with the value's number alone.

Given item COC(=O)c1ccccc1-c1c2ccc(=N)cc-2oc2cc(N)ccc12 [Rh123, Rhodamine 123, reference compound] , the value recorded as its efflux ratio at 90 min, 10 µM is 6.88

* * *

Test: in vitro
Conditions: dog, MDCK-MDR1, Papp AP→BL, 40 μM, 90 min
property: Papp A→B (×10⁻⁶ cm/s)
Lab book: enter the figure in ×10⁻⁶ cm/s, no units written.

Use the examples below as a reference point.
>>> print(df.to_string())
                                smiles_code  quantity_unit  experimental_value
0  CC[C@H]1CN2CCc3c([nH]c4ccccc34)[C@H]2C[C@@H]1/C(=C\OC)C(=O)OC     ×10⁻⁶ cm/s                15.1
1  CC[C@H]1CN2CC[C@@]3(C(=O)Nc4ccccc43)[C@@H]2C[C@@H]1/C(=C\OC)C(=O)OC     ×10⁻⁶ cm/s                17.7

Next:
Given item CC[C@H]1CN2CC[C@]3(C(=O)Nc4ccccc43)[C@@H]2C[C@@H]1/C(=C\OC)C(=O)OC , the value recorded as its Papp A→B is 4.37
